Listing of entries alongside the reported In Vivo BRh 3 mg · kg · 8 h (remaining FAAH activity).
Biological target: FAAH (Mus musculus)
Construct: A fragment of liver, left lung lobe and brain without cerebellum were removed; from tissue; host or cells: male NMRI mice; brain (without cerebellum) and liver homogenates
Sequence (O08914 whole entry, the tested form may be a part): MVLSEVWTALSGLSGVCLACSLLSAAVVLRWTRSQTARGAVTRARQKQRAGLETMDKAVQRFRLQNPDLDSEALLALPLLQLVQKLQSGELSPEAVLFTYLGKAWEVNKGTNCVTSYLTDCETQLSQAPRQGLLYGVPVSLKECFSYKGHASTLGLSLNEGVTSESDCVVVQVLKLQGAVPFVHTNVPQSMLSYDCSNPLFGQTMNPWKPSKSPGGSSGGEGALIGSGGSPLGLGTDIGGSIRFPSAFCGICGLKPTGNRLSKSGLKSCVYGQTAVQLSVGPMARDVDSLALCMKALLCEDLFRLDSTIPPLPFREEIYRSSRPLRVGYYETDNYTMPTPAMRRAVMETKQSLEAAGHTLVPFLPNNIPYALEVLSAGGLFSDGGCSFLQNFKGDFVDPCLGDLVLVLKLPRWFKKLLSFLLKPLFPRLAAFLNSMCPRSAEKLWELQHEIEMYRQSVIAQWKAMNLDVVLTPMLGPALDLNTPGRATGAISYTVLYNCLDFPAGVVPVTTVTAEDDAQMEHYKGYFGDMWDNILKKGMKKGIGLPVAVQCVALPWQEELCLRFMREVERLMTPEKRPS
Assay: In vivo FAAH inhibition after oral dosing, remaining activity in brain homogenate (BRh, central nervous tissue)
Set-up: species or system NMRI mice
Settings: brain homogenate, 3 mg/kg oral, 8 h; low value = strong inhibitor
recorded.metric: In Vivo BRh 3 mg · kg · 8 h (remaining FAAH activity)

| compound | reported.value |
| --- | --- |
| CN(C(=O)n1cnc(-c2ccc(O)c(C(N)=O)c2)c1)C1CCOCC1 [Compound no. 513] | 90.3 % of control |
| CN(C(=O)n1cnc(-c2cccnc2)c1)C1CCN(CC(=O)O)CC1 [Compound 558] | 83.1 % of control |
| CN(C(=O)n1cnc(-c2cccnc2)c1)C1CCN(S(C)(=O)=O)CC1 [Compound no. 533] | 12 % of control |
| CCCN1CCC(N(C)C(=O)n2cnc(-c3ccc[n+]([O-])c3)c2)CC1 [Compound no. 519] | 82 % of control |
| CN(C(=O)n1cnc(-c2ccc(O)c([N+](=O)[O-])c2)c1)C1CCOCC1 [Compound no. 494] | 48.9 % of control |
| COc1ccc(-c2cn(C(=O)N(C)C3CCCCC3)cn2)cc1/C(N)=N\O [Compound no. 507] | 101.7 % of control |
| COc1ccc(-c2cn(C(=O)N(C)C3CCN(CCO)CC3)cn2)cc1F [Compound no. 540] | 89.7 % of control |
| CN(C(=O)n1cnc(-c2cccc(NC(=N)N)c2)c1)C1CCCCC1.Cl [Compound 553] | 72.3 % of control |
| CCN1CCC(N(C)C(=O)n2cnc(-c3cccc([N+](=O)[O-])c3)c2)CC1 [Compound no. 509] | 78.3 % of control |

Source: patent US9353082B2
